Values were extracted from ChEMBL document CHEMBL4177585.

- Tested on: Influenza A virus
- measurement_notes: Antiviral activity against Influenza A virus (A/Victoria/3/1975(H3N2)) infected in MDCK cells assessed as reduction in virus-induced cytopathogenicity incubated for 48 hrs by SRB assay
- Type: functional, organism-based
outcome_measure: IC50

Problem: Given COc1cc(CN2CCN(c3ccc(C)cc3)CC2)c2cc3[n+](cc2c1O)CCc1cc2c(cc1-3)OCO2.[Cl-] , state its recorded IC50.
Solution: 2.13 µg/mL

Problem: Queued: COc1cc(CN2CCN(c3ccccc3Cl)CC2)c2cc3[n+](cc2c1O)CCc1cc2c(cc1-3)OCO2.[Cl-]
Solution: 2.98 µg/mL

Problem: Queued: CCOC(=O)C1=C[C@@H](OC(CC)CC)[C@H](NC(C)=O)[C@@H](N)C1
Solution: 12.1 µg/mL

Problem: Queued: COc1cc(CN2CCN(c3ccc(F)cc3)CC2)c2cc3[n+](cc2c1O)CCc1cc2c(cc1-3)OCO2.[Cl-]
Solution: 1.15 µg/mL
